TARGET ENTITY: UniProt:P08183
ASSAY REMARKS: in vitro
CONDITION SET: dog, MDCK-MDR1, pH 7.4
PROPERTY: Papp A→B (×10⁻⁶ cm/s)
One number for each entry, in ×10⁻⁶ cm/s.

Ask: I am curious: what Papp A→B value has been reported for CC1=C(C)C(=O)O[C@@H]([C@@H](C)[C@@]2(O)CC[C@H]3[C@@H]4[C@@H]5O[C@@H]5[C@@]5(O)CC=CC(=O)[C@]5(C)[C@H]4CC[C@@]32C)C1 [Withanone] ?
Result: 1.23

----------
TARGET ENTITY: P-gp (MDR1, ABCB1), human (Homo sapiens, UniProt P08183)
Sequence (P08183 whole entry): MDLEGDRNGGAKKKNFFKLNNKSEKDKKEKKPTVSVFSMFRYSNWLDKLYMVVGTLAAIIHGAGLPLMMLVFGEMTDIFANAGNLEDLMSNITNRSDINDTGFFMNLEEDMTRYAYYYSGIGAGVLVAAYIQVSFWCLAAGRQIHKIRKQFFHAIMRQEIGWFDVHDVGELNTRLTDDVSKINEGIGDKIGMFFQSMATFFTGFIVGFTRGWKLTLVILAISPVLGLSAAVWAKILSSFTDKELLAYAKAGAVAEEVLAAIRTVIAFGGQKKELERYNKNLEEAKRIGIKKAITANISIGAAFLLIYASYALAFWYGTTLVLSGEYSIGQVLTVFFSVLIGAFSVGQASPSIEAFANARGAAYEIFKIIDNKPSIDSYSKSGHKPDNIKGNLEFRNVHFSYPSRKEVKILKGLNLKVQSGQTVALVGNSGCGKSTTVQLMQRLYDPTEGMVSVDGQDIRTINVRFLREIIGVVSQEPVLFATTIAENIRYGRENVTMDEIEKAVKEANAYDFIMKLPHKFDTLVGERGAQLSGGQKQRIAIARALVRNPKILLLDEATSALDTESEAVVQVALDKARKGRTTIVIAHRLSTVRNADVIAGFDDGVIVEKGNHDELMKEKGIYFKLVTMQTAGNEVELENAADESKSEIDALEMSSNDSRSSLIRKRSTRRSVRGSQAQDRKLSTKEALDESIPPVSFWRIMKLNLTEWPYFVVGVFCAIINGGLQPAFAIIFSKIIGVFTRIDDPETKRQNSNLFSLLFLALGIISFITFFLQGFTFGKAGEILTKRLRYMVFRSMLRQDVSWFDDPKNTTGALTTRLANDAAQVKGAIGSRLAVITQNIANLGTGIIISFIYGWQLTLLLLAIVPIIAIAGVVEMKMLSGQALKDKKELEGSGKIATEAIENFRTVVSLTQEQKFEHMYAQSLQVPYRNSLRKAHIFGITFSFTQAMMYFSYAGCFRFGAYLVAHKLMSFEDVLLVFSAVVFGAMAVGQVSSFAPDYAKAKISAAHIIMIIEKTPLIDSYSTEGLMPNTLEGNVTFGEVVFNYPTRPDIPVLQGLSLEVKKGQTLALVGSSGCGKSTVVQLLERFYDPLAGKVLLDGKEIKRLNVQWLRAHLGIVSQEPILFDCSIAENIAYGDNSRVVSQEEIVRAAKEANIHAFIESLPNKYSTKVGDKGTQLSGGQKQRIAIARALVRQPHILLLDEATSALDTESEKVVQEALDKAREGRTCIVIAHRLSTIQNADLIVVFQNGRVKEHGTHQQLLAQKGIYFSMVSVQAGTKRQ
ASSAY REMARKS: in vitro
CONDITION SET: dog, MDCK-MDR1, pH 7.4
PROPERTY: Papp B→A (×10⁻⁶ cm/s)
Numbers only, in ×10⁻⁶ cm/s.

Ask: Please state recorded Papp B→A (tested on P-gp (MDR1, ABCB1), human (Homo sapiens, UniProt P08183)) of "CC1=C(C)C(=O)O[C@@H]([C@@H](C)[C@@]2(O)CC[C@H]3[C@@H]4[C@@H]5O[C@@H]5[C@@]5(O)CC=CC(=O)[C@]5(C)[C@H]4CC[C@@]32C)C1"
Result: 31.6

----------
What Papp at 60 min was measured for each of the following?
TARGET ENTITY: P-gp (MDR1, ABCB1), human (Homo sapiens, UniProt P08183)
ASSAY REMARKS: in vitro
CONDITION SET: dog, MDCK-MDR1, pH 7.4

Go through the list and state Papp at 60 min for each entry.
1. CC(/C=C/C=C(\C)C(=O)O)=C\C=C\C=C(C)\C=C\C=C(/C)C(=O)O
2. O=c1cc(-c2ccc(O)cc2)oc2cc(O)cc(O)c12

Result:
1 to 10 ×10⁻⁶ cm/s
1 to 10 ×10⁻⁶ cm/s

Could you report Papp at 60 min for every entry in the following list?
1. CC(/C=C/C=C(\C)C(=O)O[C@@H]1O[C@H](CO[C@@H]2O[C@H](CO)[C@@H](O)[C@H](O)[C@H]2O)[C@@H](O)[C@H](O)[C@H]1O)=C\C=C\C=C(C)\C=C\C=C(/C)C(=O)O[C@@H]1O[C@H](CO[C@@H]2O[C@H](CO)[C@@H](O)[C@H](O)[C@H]2O)[C@@H](O)[C@H](O)[C@H]1O
2. CC1(C)CC[C@]2(C(=O)O)CC[C@]3(C)C(=CC[C@@H]4[C@@]5(C)CC[C@H](O)C(C)(C)[C@@H]5CC[C@]43C)[C@@H]2C1

Result:
["< 1 ×10⁻⁶ cm/s", "< 1 ×10⁻⁶ cm/s"]
